- System: Escherichia coli
- experiment-notes: Antibacterial activity against Escherichia coli TOP10 expressing AmpC-B2 by agar dilution method
- Assay type: functional
Returns: string. Value is condition met if measured MIC is below 0.5 µg/mL, and condition not met if it is greater than or equal to it.

Solved cases below.
CO/N=C(\C(=O)N[C@@H]1C(=O)N2C(C(=O)[O-])=C(C[N+]3(C)CCCC3)CS[C@H]12)c1csc(N)n1 [CEFEPIME] ... condition met
CCN1CCN(C(=O)N[C@@H](C(=O)N[C@@H]2C(=O)N3[C@@H]2SC(C)(C)[C@@H]3C(=O)O)c2ccccc2)C(=O)C1=O ... condition not met
CC1(C)S[C@@H]2[C@H](NC(=O)[C@H](C(=O)O)c3ccsc3)C(=O)N2[C@H]1C(=O)O ... condition not met
CO[C@@]1(NC(=O)Cc2cccs2)C(=O)N2C(C(=O)O)=C(COC(N)=O)CS[C@@H]21 ... condition not met
CC(=O)OCC1=C(C(=O)O)N2C(=O)[C@@H](NC(=O)Cc3cccs3)[C@H]2SC1 ... condition not met

Regarding C[C@H]1[C@H](NC(=O)/C(=N\OC(C)(C)C(=O)O)c2csc(N)n2)C(=O)N1S(=O)(=O)O , kindly confirm whether its MIC is beneath 0.5 µg/mL.
condition met

Try this compound too: C[C@@H](O)[C@H]1C(=O)N2C(C(=O)O)=C(SCCNC=N)C[C@H]12 [IMIPENEM ANHYDROUS]
condition met

Try this compound too: CC(C)(O/N=C(\C(=O)N[C@@H]1C(=O)N2C(C(=O)[O-])=C(C[n+]3ccccc3)CS[C@H]12)c1csc(N)n1)C(=O)O
condition not met

Try this compound too: CC1(C)S[C@@H]2[C@H](NC(=O)[C@H](N)c3ccc(O)cc3)C(=O)N2[C@H]1C(=O)O
condition not met

* * *

- Tested on: Escherichia coli
- experiment-notes: Activity of Escherichia coli TOP10 beta-lactamase AmpC-B2 S287N mutant
measured-parameter: Km (µM)
Give just the number in µM; leave the unit off.

CC(C)(O/N=C(\C(=O)N[C@@H]1C(=O)N2C(C(=O)[O-])=C(C[n+]3ccccc3)CS[C@H]12)c1csc(N)n1)C(=O)O ... 1000
C[C@@H](O)[C@H]1C(=O)N2C(C(=O)O)=C(SCCNC=N)C[C@H]12 [IMIPENEM ANHYDROUS] ... 2000

Record lookup: for Escherichia coli, what Km belongs to CO/N=C(\C(=O)N[C@@H]1C(=O)N2C(C(=O)O)=C(COC(C)=O)CS[C@H]12)c1csc(N)n1 ?
1000

Try this compound too: CO[C@@]1(NC(=O)Cc2cccs2)C(=O)N2C(C(=O)O)=C(COC(N)=O)CS[C@@H]21
800

* * *

Reported kcat values follow for various compounds
- Test system: Escherichia coli
- experiment-notes: Activity of Escherichia coli TOP10 beta-lactamase AmpC-A
Give just the number in s⁻¹; leave the unit off.

CC(=O)OCC1=C(C(=O)O)N2C(=O)[C@@H](NC(=O)Cc3cccs3)[C@H]2SC1 [CEPHALOTHIN] ... 500
CO/N=C(\C(=O)N[C@@H]1C(=O)N2C(C(=O)O)=C(COC(C)=O)CS[C@H]12)c1csc(N)n1 [CEFOTAXIME] ... 0.2
O=C(Cc1cccs1)N[C@@H]1C(=O)N2C(C(=O)[O-])=C(C[n+]3ccccc3)CS[C@H]12 ... 230
CO[C@@]1(NC(=O)Cc2cccs2)C(=O)N2C(C(=O)O)=C(COC(N)=O)CS[C@@H]21 [CEFOXITIN] ... 0.3

Shifting focus to the compound that follows.
Give the measured kcat of CC(C)(O/N=C(\C(=O)N[C@@H]1C(=O)N2C(C(=O)[O-])=C(C[n+]3ccccc3)CS[C@H]12)c1csc(N)n1)C(=O)O [CEFTAZIDIME] .
0.5

* * *

Reported kcat values follow for various compounds
- Tested on: Escherichia coli
- experiment-notes: Activity of Escherichia coli TOP10 beta-lactamase AmpC-A S287N mutant
Hi, when you answer, please include the unit after the number. Thanks!

Record lookup: for Escherichia coli, what kcat belongs to CO/N=C(\C(=O)N[C@@H]1C(=O)N2C(C(=O)O)=C(COC(C)=O)CS[C@H]12)c1csc(N)n1 ?
0.08 s⁻¹

Try this compound too: CC(C)(O/N=C(\C(=O)N[C@@H]1C(=O)N2C(C(=O)[O-])=C(C[n+]3ccccc3)CS[C@H]12)c1csc(N)n1)C(=O)O
0.2 s⁻¹

Try this compound too: CC(=O)OCC1=C(C(=O)O)N2C(=O)[C@@H](NC(=O)Cc3cccs3)[C@H]2SC1
65 s⁻¹

Try this compound too: CO[C@@]1(NC(=O)Cc2cccs2)C(=O)N2C(C(=O)O)=C(COC(N)=O)CS[C@@H]21
0.1 s⁻¹

* * *

Reported Km values follow for various molecules
- Test system: Escherichia coli
- experiment-notes: Activity of Escherichia coli TOP10 beta-lactamase AmpC-B2
Give just the number in µM; leave the unit off.

Below, each entry is followed by its recorded Km result.
CO/N=C(\C(=O)N[C@@H]1C(=O)N2C(C(=O)O)=C(COC(C)=O)CS[C@H]12)c1csc(N)n1 ... 45
CO[C@@]1(NC(=O)Cc2cccs2)C(=O)N2C(C(=O)O)=C(COC(N)=O)CS[C@@H]21 ... 1.5

Give the measured Km of C[C@@H](O)[C@H]1C(=O)N2C(C(=O)O)=C(SCCNC=N)C[C@H]12 [IMIPENEM ANHYDROUS] .
32

Try this molecule too: CC(=O)OCC1=C(C(=O)O)N2C(=O)[C@@H](NC(=O)Cc3cccs3)[C@H]2SC1
85

* * *

- Test system: Escherichia coli
- experiment-notes: Activity of Escherichia coli TOP10 beta-lactamase AmpC-A S287N mutant
Reported kcat values follow for various compounds
Give just the number in s⁻¹; leave the unit off.

Below, each entry is followed by its recorded kcat result.
C[C@@H](O)[C@H]1C(=O)N2C(C(=O)O)=C(SCCNC=N)C[C@H]12 [IMIPENEM ANHYDROUS] ... 0.06
O=C(Cc1cccs1)N[C@@H]1C(=O)N2C(C(=O)[O-])=C(C[n+]3ccccc3)CS[C@H]12 ... 50

Give the measured kcat of CO/N=C(\C(=O)N[C@@H]1C(=O)N2C(C(=O)[O-])=C(C[N+]3(C)CCCC3)CS[C@H]12)c1csc(N)n1 [CEFEPIME] .
1.35

* * *

- Tested on: Escherichia coli
- experiment-notes: Activity of Escherichia coli TOP10 beta-lactamase AmpC-A
Reported Km values follow for various molecules
Give just the number in µM; leave the unit off.

Below, each entry is followed by its recorded Km result.
CO/N=C(\C(=O)N[C@@H]1C(=O)N2C(C(=O)O)=C(COC(C)=O)CS[C@H]12)c1csc(N)n1 ... 25
CC(=O)OCC1=C(C(=O)O)N2C(=O)[C@@H](NC(=O)Cc3cccs3)[C@H]2SC1 ... 30
CO[C@@]1(NC(=O)Cc2cccs2)C(=O)N2C(C(=O)O)=C(COC(N)=O)CS[C@@H]21 ... 1

Shifting focus to the molecule that follows.
Give the measured Km of CC(C)(O/N=C(\C(=O)N[C@@H]1C(=O)N2C(C(=O)[O-])=C(C[n+]3ccccc3)CS[C@H]12)c1csc(N)n1)C(=O)O .
70

* * *

- Tested on: Escherichia coli
- experiment-notes: Activity of Escherichia coli TOP10 beta-lactamase AmpC-B2 S287N mutant
Reported log10 of kcat values follow for various compounds
Heads up: the numbers are on a log10 scale; they represent kcat in s⁻¹.

Below, each entry is followed by its recorded log10 of kcat result.
CO/N=C(\C(=O)N[C@@H]1C(=O)N2C(C(=O)[O-])=C(C[N+]3(C)CCCC3)CS[C@H]12)c1csc(N)n1 [CEFEPIME] ... -0.60
O=C(Cc1cccs1)N[C@@H]1C(=O)N2C(C(=O)[O-])=C(C[n+]3ccccc3)CS[C@H]12 ... 2.05
C[C@@H](O)[C@H]1C(=O)N2C(C(=O)O)=C(SCCNC=N)C[C@H]12 [IMIPENEM ANHYDROUS] ... -1.22
CC(C)(O/N=C(\C(=O)N[C@@H]1C(=O)N2C(C(=O)[O-])=C(C[n+]3ccccc3)CS[C@H]12)c1csc(N)n1)C(=O)O [CEFTAZIDIME] ... -2.00
CC(=O)OCC1=C(C(=O)O)N2C(=O)[C@@H](NC(=O)Cc3cccs3)[C@H]2SC1 [CEPHALOTHIN] ... 1.00

Give the measured log10 of kcat of CO/N=C(\C(=O)N[C@@H]1C(=O)N2C(C(=O)O)=C(COC(C)=O)CS[C@H]12)c1csc(N)n1 [CEFOTAXIME] .
-1.35

Try this compound too: CO[C@@]1(NC(=O)Cc2cccs2)C(=O)N2C(C(=O)O)=C(COC(N)=O)CS[C@@H]21 [CEFOXITIN]
-1.10

FYI, the data here is from ChEMBL document CHEMBL1275582.
